Where do the numbers come from? From patent US20070128217A1.

Give measured Binding of serum London to linear peptides of protein M of SARS-CoV Urbani for each item. Keep answers brief.
system: antibodies in sera from SARS patients (sera 1a, 1b, 2, 6, 37, 62, London, SARS-yellow, SARS-green); assay type: binding, human
Number only, please.

State the recorded Binding of serum London to linear peptides of protein M of SARS-CoV Urbani for this entry: SELVIGAVIIRGHLR
0.4

State the recorded Binding of serum London to linear peptides of protein M of SARS-CoV Urbani for this entry: ACIVGLMWLSYFVAS
0.3

State the recorded Binding of serum London to linear peptides of protein M of SARS-CoV Urbani for this entry: SNRNRFLYIIKLVFL
0.3

State the recorded Binding of serum London to linear peptides of protein M of SARS-CoV Urbani for this entry: SRTLSYYKLGASQRV
0.3

State the recorded Binding of serum London to linear peptides of protein M of SARS-CoV Urbani for this entry: LFARTRSMWSFNPET
0.4

State the recorded Binding of serum London to linear peptides of protein M of SARS-CoV Urbani for this entry: RYRIGNYKLNTDHAG
0.5

State the recorded Binding of serum London to linear peptides of protein M of SARS-CoV Urbani for this entry: SYFVASFRLFARTRS
0.3

State the recorded Binding of serum London to linear peptides of protein M of SARS-CoV Urbani for this entry: VGTDSGFAAYNRYRI
0.3

State the recorded Binding of serum London to linear peptides of protein M of SARS-CoV Urbani for this entry: ARTRSMWSFNPETNI
0.4

---

system: antibodies in sera from SARS patients (sera 1a, 1b, 2, 6, 37, 62, London, SARS-yellow, SARS-green); type: binding, human
So basically: is Binding of serum 1b to linear peptides of protein X1 of SARS-CoV Urbani under 0.5? Then met. Not under? Then not met.

Please check: Binding of serum 1b to linear peptides of protein X1 of SARS-CoV Urbani for ATATIPLQASLPFGW , strictly under 0.5 or not?
not met

Please check: Binding of serum 1b to linear peptides of protein X1 of SARS-CoV Urbani for FTEVYYQLESTQITT , strictly under 0.5 or not?
not met

Please check: Binding of serum 1b to linear peptides of protein X1 of SARS-CoV Urbani for AVFQSATKIIALNKR , strictly under 0.5 or not?
not met

Please check: Binding of serum 1b to linear peptides of protein X1 of SARS-CoV Urbani for ALNKRWQLALYKGFQ , strictly under 0.5 or not?
not met

Please check: Binding of serum 1b to linear peptides of protein X1 of SARS-CoV Urbani for AAGMEAQFLYLYALI , strictly under 0.5 or not?
not met

Please check: Binding of serum 1b to linear peptides of protein X1 of SARS-CoV Urbani for YYQLESTQITTDTGI , strictly under 0.5 or not?
not met

Please check: Binding of serum 1b to linear peptides of protein X1 of SARS-CoV Urbani for MRFFTLGSITAQPVK , strictly under 0.5 or not?
met

Please check: Binding of serum 1b to linear peptides of protein X1 of SARS-CoV Urbani for LFVTIYSHLLLVAAG , strictly under 0.5 or not?
met

Please check: Binding of serum 1b to linear peptides of protein X1 of SARS-CoV Urbani for GMEAQFLYLYALIYF , strictly under 0.5 or not?
not met

Please check: Binding of serum 1b to linear peptides of protein X1 of SARS-CoV Urbani for YFLQCINACRIIMRC , strictly under 0.5 or not?
not met

Please check: Binding of serum 1b to linear peptides of protein X1 of SARS-CoV Urbani for ALIYFLQCINACRII , strictly under 0.5 or not?
not met

Please check: Binding of serum 1b to linear peptides of protein X1 of SARS-CoV Urbani for VTIYSHLLLVAAGME , strictly under 0.5 or not?
not met

Please check: Binding of serum 1b to linear peptides of protein X1 of SARS-CoV Urbani for VVTEGDGISTPKLKE , strictly under 0.5 or not?
met

Please check: Binding of serum 1b to linear peptides of protein X1 of SARS-CoV Urbani for YFTEVYYQLESTQIT , strictly under 0.5 or not?
not met

Please check: Binding of serum 1b to linear peptides of protein X1 of SARS-CoV Urbani for KCKSKNPLLYDANYF , strictly under 0.5 or not?
met

Please check: Binding of serum 1b to linear peptides of protein X1 of SARS-CoV Urbani for DPPNVQIHTIDGSSG , strictly under 0.5 or not?
met

Please check: Binding of serum 1b to linear peptides of protein X1 of SARS-CoV Urbani for LLLVAAGMEAQFLYL , strictly under 0.5 or not?
not met

---

tested on: rabbit serum obtained by immunizing a rabbit with the SARS-CoV strain Frankfurt 1; type: binding; set-up: unit not given here
PARAMETER: Binding of a rabbit serum to looped peptides
Number only, please.

State the recorded Binding of a rabbit serum to looped peptides for this entry: YSEDRHSGVKDYVVV
0.4

State the recorded Binding of a rabbit serum to looped peptides for this entry: MPTTLFAGTHITMTT
0.3

State the recorded Binding of a rabbit serum to looped peptides for this entry: CWLCWKCKSKNPLLY
0.7

State the recorded Binding of a rabbit serum to looped peptides for this entry: ISPKFTTSLSLHKLL
0.4

State the recorded Binding of a rabbit serum to looped peptides for this entry: TTLFAGTHITMTTVY
0.3

State the recorded Binding of a rabbit serum to looped peptides for this entry: EDRHSGVKDYVVVHG
0.3

State the recorded Binding of a rabbit serum to looped peptides for this entry: VILRIGTQVLKTMSL
0.5

State the recorded Binding of a rabbit serum to looped peptides for this entry: KTHRMCKYTQSTALQ
0.3

State the recorded Binding of a rabbit serum to looped peptides for this entry: RRRLLACLCKHKKVS
0.2

State the recorded Binding of a rabbit serum to looped peptides for this entry: QLALYKGFQFICNLL
0.6

State the recorded Binding of a rabbit serum to looped peptides for this entry: TVYVYSRVKNLNSSE
0.3

State the recorded Binding of a rabbit serum to looped peptides for this entry: SSSLTSLLKTHRMCK
0.2

State the recorded Binding of a rabbit serum to looped peptides for this entry: TAQPVKIDNASPAST
0.4

State the recorded Binding of a rabbit serum to looped peptides for this entry: CNLLLLFVTIYSHLL
0.6

State the recorded Binding of a rabbit serum to looped peptides for this entry: LLVAAGMEAQFLYLY
0.5

State the recorded Binding of a rabbit serum to looped peptides for this entry: RVKNLNSSEGVPDLL
0.6

State the recorded Binding of a rabbit serum to looped peptides for this entry: VYSRVKNLNSSEGVP
0.0

State the recorded Binding of a rabbit serum to looped peptides for this entry: VTEGDGISTPKLKED
0.4
